Field: Pre-emergence action against DIGSA. Provide a value for each of the compounds that follow.
Tested on: DIGSA
Assay: Pre-emergence action against DIGSA, 1280 g/ha
Format: in vivo, Digitaria sanguinalis
Settings: visual scoring after about 3 weeks vs untreated controls, 100% = plants have died, 0% = like control plants
Answers are plain numbers, in %.

O=C(COc1nn(-c2ccccc2F)c(-c2ccc(F)nc2)c1Br)OCCCl [VII-108] | 100

I have 7 compounds here; please give me Pre-emergence action against DIGSA for each one.
1. COC(=O)C(C)Oc1nn(-c2ccccc2)c(-c2cccnc2)c1Cl (stereo not drawn) [VII-032]
2. CSc1c(OCC(=O)O)nn(-c2ccccc2F)c1-c1ccc(F)nc1 [VII-056]
3. C[C@@H](Oc1nn(-c2ccccc2F)c(-c2cnccn2)c1Br)C(=O)O [Example I-002]
4. COC(=O)C(C)Oc1nn(-c2ccccc2)c(-c2ccnc(Cl)c2)c1Cl (stereo not drawn) [VIII-001]
5. COC(=O)C(C)Oc1nn(-c2ccccc2)c(-c2ccnc(F)c2)c1Cl (stereo not drawn) [VIII-007]
6. Cc1ccc(-n2nc(OCC(=O)O)c(Br)c2-c2ccc(F)nc2)cc1 [VII-067]
7. O=C(COc1nn(-c2ccccc2F)c(-c2ccc(F)nc2)c1Br)O[C@H]1CCOC1=O [VII-064]

Response line:
[90, 100, 100, 90, 90, 100, 100]

I have 3 compounds here; please give me Pre-emergence action against DIGSA for each one.
1. COC(=O)COc1nn(-c2ccccc2F)c(-c2ccc(F)nc2)c1SC [VII-123]
2. COC(=O)[C@@H](C)Oc1nn(-c2ccccc2F)c(-c2cncnc2)c1[N+](=O)[O-] [VI-006]
3. O=C(O)COc1nn(-c2ccccc2F)c(-c2ccc(F)nc2)c1C(F)(F)F [VII-030]

Response line:
1. 100
2. 100
3. 90

I have 2 compounds here; please give me Pre-emergence action against DIGSA for each one.
1. O=C(COc1nn(-c2ccccc2F)c(-c2ccc(F)nc2)c1Br)OCc1ccco1 [VII-098]
2. COC(=O)[C@@H](C)Oc1nn(-c2ccccc2F)c(-c2ccc(F)nc2)c1Br [VII-123-a]

Response line:
100
100

I have 2 compounds here; please give me Pre-emergence action against DIGSA for each one.
1. C[C@@H](Oc1nn(-c2ccccc2F)c(-c2cncnc2)c1Br)C(=O)O [VI-012]
2. COC(=O)COc1nn(-c2ccccc2F)c(-c2ccc(F)nc2)c1C(F)(F)F [VII-031]

Response line:
1. 90
2. 100
